Molecular target: OATP2B1 (Homo sapiens, UniProt O94956)
Sequence (O94956 whole entry): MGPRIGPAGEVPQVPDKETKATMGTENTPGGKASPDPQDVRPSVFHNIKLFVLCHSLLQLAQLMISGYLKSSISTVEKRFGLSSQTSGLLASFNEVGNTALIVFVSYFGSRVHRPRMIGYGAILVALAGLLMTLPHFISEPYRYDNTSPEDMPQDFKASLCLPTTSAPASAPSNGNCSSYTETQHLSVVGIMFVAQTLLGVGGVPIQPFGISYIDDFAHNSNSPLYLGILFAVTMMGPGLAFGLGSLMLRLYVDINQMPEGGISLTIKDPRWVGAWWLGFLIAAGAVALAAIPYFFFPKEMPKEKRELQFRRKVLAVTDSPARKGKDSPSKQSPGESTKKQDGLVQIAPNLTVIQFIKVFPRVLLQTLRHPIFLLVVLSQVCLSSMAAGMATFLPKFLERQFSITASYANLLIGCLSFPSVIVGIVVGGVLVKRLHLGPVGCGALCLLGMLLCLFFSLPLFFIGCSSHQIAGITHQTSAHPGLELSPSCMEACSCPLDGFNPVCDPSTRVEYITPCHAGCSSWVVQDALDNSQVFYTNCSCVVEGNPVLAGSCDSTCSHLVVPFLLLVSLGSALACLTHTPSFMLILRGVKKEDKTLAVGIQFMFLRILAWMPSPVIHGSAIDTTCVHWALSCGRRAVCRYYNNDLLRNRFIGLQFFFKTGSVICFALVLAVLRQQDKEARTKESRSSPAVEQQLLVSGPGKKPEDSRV
quantityMeasured: IC50 (µM)
// units = µM; emit number, no label

Task item: Fill in IC50 for record N=C(N)Nc1ccc(C(=O)Oc2ccc(CC(=O)O)cc2)cc1
Reply: 11.1
